Data origin, for the record: patent US20210324359A1

Recorded measurements of CAA/HuS MIC, one per entry
tested on: P. aeruginosa; assay: MIC, modified CLSI broth microdilution in CAA medium without or with […] human serum (Table 4); format: cell-based, Pseudomonas aeruginosa; settings: CAA supplemented with […] human serum; also: CAA supplemented with 2.5% human serum
Express it in mg/mL; write the number only.

Record excerpt, results attached:
What does the data say about its CAA/HuS MIC? Entry: GN243: lysin-AMP construct: PP moiety, IGEM linker and TI15 peptide C-terminal to GN37 lysin (SEQ ID NO: 16) (protein) MTYTLSKRSLDNLKGVHPDLVAVVHRAIQLTPVDFAVIEGLRSVSRQKELVAAGASKTMNSRHLTGHAVDLAAYVNGIRWDWPLYDAIAVAVKAAAKELGVAIVWGGDWTTFKDGPHFELDRSKYRKKTRKRLKKIGKVLKWIPPGGGSGGGGSGGGSTRKRLKKIGKVLKWI
0.5

What does the data say about its CAA/HuS MIC? Entry: GN223: lysin-AMP construct: RPP moiety, IGEM linker and amurin peptide Gkh2 C-terminal to GN37 lysin (SEQ ID NO: 12) (protein) MTYTLSKRSLDNLKGVHPDLVAVVHRAIQLTPVDFAVIEGLRSVSRQKELVAAGASKTMNSRHLTGHAVDLAAYVNGIRWDWPLYDAIAVAVKAAAKELGVAIVWGGDWTTFKDGPHFELDRSKYRPPGGGSGGGGSGGGSSKKASRKSFTKGAVKVHKKNVPTRVPMRGGIRL
2

More entries:
What does the data say about its CAA/HuS MIC? Entry: GN316: lysin obtained from Klebsiella phage 0507-KN2-1 (SEQ ID NO: 22) (protein, (1)..(264) GN316 lysin) MAILKIGSKGLEVKNLQTSLNKIGFNLVADGIFGKATDNAVRAVQAGAGLVVDGIAGPKTMYAIRNAGESHQDHLTEADLIDAARELSVDLASIKAVNQVESRGTGFTKSGKIKTLFERHIMYKKLNAKFGQAKANALAQLYPTLVNAKAGGYTGGDAELERLHGAIAIDKDCAYESASYGLFQIMGFNCVICGYDNAEEMFNDFLTGERAQLMAFVKFIKADANLWKALKDKNWAEFARRYNGPAYAQNQYDTKLAAAYKSFS
0.125

What does the data say about its CAA/HuS MIC? Entry: GN178: lysin-AMP construct: Esculentin fragment and IGEM linker N-terminal to GN146 lysin (SEQ ID NO: 6) (protein) MPPIFSKLAGKKIKNLLISGLKGGSGSGSGSGSPRTSQRGIDLIKSFEGLRLSAYQDSVGVWTIGYGTTRGVTRYMTITVEQAERMLSNDIQRFEPELDRLAKVPLNQNQWDALMSFVYNLGAANLASSTLLDLLNKGDYQGAADQFPHWVNAGGKRLDGLVKRRAAERALFLEPLS
4
